Where these numbers come from: PubChem BioAssay (NCI)

For each of the compounds below, state its TGI.
# Tested on: MDA-MB-231 breast
# protocolText: NCI tumour cell line growth inhibition, 48 h

Given the entry CN(/N=C\c1ccc2ccccc2c1)C1=NCCCCN1 , report its measured TGI.
64.5 µM

Same read-out for CC12ON=C(c3ccccc3)N1C=CN1C(c3ccccc3)=NOC12 (stereo not drawn) ?
> 100 µM

Further, for CCC1(C)N=C(C(N)=O)c2ncn(N=C(C)C)c2N1 (stereo not drawn) ?
> 100 µM

Please answer likewise for O=Cc1coc2ccccc2c1=O
48.4 µM

# iterate: Oc1ccccc1-n1c(-c2ccccc2)ccc1-c1ccccc1
22.1 µM

And for COc1ccc(/C=C(\C#N)c2cc3ccccc3n2C)cc1 ?
> 100 µM

Another: COC(=O)C1=C(C)NC(C)=C([N+](=O)[O-])C1c1cccc(NO)c1 (stereo not drawn)
17 µM

Subsequent entry: O/N=C\c1cc(O)c(O)c(/C=N/O)c1
> 100 µM

====

# System: UACC-257 melanoma
# protocolText: NCI tumour cell line growth inhibition, 48 h
measuredParameter: GI50

What GI50 value was documented for this compound, NC(CSC(c1ccccc1)(c1ccccc1)c1ccc2ccccc2c1)C(=O)O (centres undefined) ?
9.67 µM

Continue with COc1ccc2c3c(c(OCCCN(C)C)nc2c1)-c1ccc(Cl)cc1C3=O
16.4 µM

Similarly, Oc1ccccc1-n1c(-c2ccccc2)ccc1-c1ccccc1 ?
4.2 µM

Subsequent entry: c1ccc(-c2nc(N3CCNCC3)c3nc(-c4ccccc4)oc3n2)cc1
1.93 µM

Also check CC/C=C\CCC/C=C1/C(=O)C=C[C@@H]1C/C=C\CCCC(=O)O
10.5 µM

And then O=C(CCN1CCCC1)Nc1ccc2c(NCCCc3ccccc3)c3ccccc3nc2c1 , what is it?
1.81 µM

Now try O=Nc1c(O)ccc2ccccc12 .
1.64 µM

And for O=c1[nH]c(-c2ccc(C(F)(F)F)cc2)nc2c1CSCC2 ?
> 65.2 µM

Also, COc1cc(C2C(C#N)=C(N)OC3=C2C(=O)c2ccccc2C3=O)cc(OC)c1OC (centres undefined) please.
1.18 µM

====

# System: NCI-H522 lung
# protocolText: NCI tumour cell line growth inhibition, 48 h
measuredParameter: TGI (µM)
The response must be a number in µM with no trailing unit.

Could you share which TGI value was measured for COC(=O)CCC1=C(C)c2cc3[n-]c(cc4nc(cc5[n-]c(cc1n2)c(CCC(=O)OC)c5C)C=C4C)cc3C.[Cd+2] ?
0.754

Same for O=Cc1coc2ccccc2c1=O
48.1

====

# Tested on: NCI/ADR-RES ovarian
# protocolText: NCI tumour cell line growth inhibition, 48 h
Give TGI for every item shown.
Supply the numeric figure in µM, leaving out any unit text.

Consider the molecule Cn1c(=O)c2[nH]c(COc3ccc(C(C)(C)C)cc3)nc2n(C)c1=O and give its measured TGI.
60.6

# iterate: NC(CSC(c1ccccc1)(c1ccccc1)c1ccc2ccccc2c1)C(=O)O (configuration not stated)
3.64

Try the molecule CC1=C(C(=O)OC(C)C)C(c2ccccc2[N+](=O)[O-])C(C(=O)OC(CO[N+](=O)[O-])CO[N+](=O)[O-])=C(C)N1 (configuration not stated)
12.2

How about COc1ccc(/C=C\c2cc(OC)c(OC)c(OC)c2)c(NS(=O)(=O)c2ccc(C)cc2)c1O ?
14.7

How about this molecule: CC(=O)c1cccc(NC2C(N)C(NC(=O)N(C)C)(C(C)O)C(C)(O)C2(O)COC(=O)c2c(C)cccc2O)c1 (configuration not stated)
0.591

Now consider CCNCCNc1cc(-c2ccc(F)cc2)c(C#N)c2nc3ccccc3n12 .
25.1

Likewise for Oc1c(CN2CCCC2)cc(COCc2ccccc2)c2cccnc12 ?
0.761

Would you mind doing CC/C(Cl)=N\OC(=O)Nc1ccc(C#N)cc1 as well?
18.3

Same question, COc1ccc(-c2ccc(-c3ccc(C(=N)N)cn3)s2)cc1Cl this time
3.84

For CSCCCCCCCCCCOc1ccc(C=C2C(=C(C#N)C#N)c3ccccc3C2=C(C#N)C#N)cc1 then?
75.7

Also need CC(C)(C)CC(C)(C)c1ccc(OCCOCCSC(=N)N)cc1 , thanks.
6.61

Cc1ccc2c(O)c3c(cc2c1)C(=O)c1c2c(cc(O)c1C3=O)C1(C)OC(O2)C(O)C(N(C)C)C1O (configuration not stated) , same question.
2.42

====

# System: SNB-75 CNS
# protocolText: NCI tumour cell line growth inhibition, 48 h; in the data active = GI50 below about 0.43 µM; inactive = the rest
Respond only with the outcome that fits, drawn from active, inactive

Outcome? CC(C)(C)CC(C)(C)c1ccc(OCCOCCSC(=N)N)cc1
inactive

Now the same for COc1ccc(NC(=O)c2cc(OC)c(OC)c(OC)c2)cc1O
inactive

Field entry: C#Cc1ccc(NC(=O)c2ccc(/C=C/C(=O)c3nccn3C)cc2)cc1
active

// query: N#Cc1nc(-c2ccccc2)oc1S(=O)(=O)N1CCOCC1
inactive

Item: COc1ccc(-c2ccc(-c3ccc(C(=N)N)cn3)s2)cc1Cl
inactive

====

# Test system: SNB-75 CNS
# protocolText: NCI tumour cell line growth inhibition, 48 h
Kindly supply the reported TGI values for the records listed here.

For the compound shown here, CN(O)C(=O)Cc1ccccc1 , give the reported TGI.
> 100 µM

Now the same for COc1cccc(C2C(C(=O)Nc3cc(=O)n(C)c(=O)n3C)=C(C)NC(C)=C2C(=O)Nc2cc(=O)n(C)c(=O)n2C)c1O
> 100 µM

Continue with COc1ccc(/C=C(\C#N)c2cc3ccccc3n2C)cc1
5.5 µM

Same for C=C1C(=O)OC2/C=C(\C)C(O)/C=C\C(C)(O)CC(OC(=O)/C(C)=C/C)C12 (configuration not stated)
> 100 µM

Request: Cn1c(=O)n(CC(Br)CBr)c(=O)n(CC(Br)CBr)c1=O (configuration not stated)
> 100 µM

Follow-up item: O=C(/C=C/c1ccc(Cl)c(Cl)c1)Oc1ccc(/C=C2\CCCCC2=O)cc1
> 100 µM

What do you get for Nc1ncc(Cc2nc3ccccc3s2)s1 ?
> 100 µM

Entry Nc1c(C(=O)c2ccccc2)[nH]c(NCc2ccccc2)c1C(=S)Nc1ccccc1 please
> 100 µM

What about this compound? O=C(NCc1ccccc1)c1cnc(Cl)cn1
> 100 µM

// next record O=C(CCN1CCCC1)Nc1ccc2c(NCCCc3ccccc3)c3ccccc3nc2c1
2.41 µM

Here is the next compound: Cn1cnc([N+](=O)[O-])c1Sc1ncnc2c1ncn2C1OC(CO)C(O)C1O (configuration not stated)
> 100 µM

# iterate: CC(=O)N1CC(F)(F)c2c(Sc3ncc(N4CCC5(CC4)COC[C@H]5N)nc3N)cccc21
38.2 µM

Now the compound Nc1ccn(C2OC(COP(=O)(O)Oc3ccccc3)C(O)C2O)c(=O)n1 (configuration not stated)
> 100 µM

Please answer likewise for COc1ccccc1-n1c(SCc2cc(OC)c(OC)c(OC)c2)nc2ccc(Cl)cc2c1=O
32.7 µM

Check CC1OC(=O)c2ccccc2NC1=O (configuration not stated) too.
> 100 µM

Try this compound next: CCOC(=O)C(C)(C)Oc1ccc2c(-c3ccc(Cl)cc3)cc(=O)oc2c1
> 100 µM

Follow-up item: COc1ccc2c3c(c(OCCCN(C)C)nc2c1)-c1ccc(Cl)cc1C3=O
18.3 µM

Please answer likewise for O=c1[nH]c(=S)[nH]c(O)c1/C=C1\C=CC=N1
42.5 µM

Another compound to check: C[C@@H]1CCC2[C@@H](C)C(=O)O[C@@H]3C4C[C@@H]1[C@@]23OO[C@@]4(C)O (some centres not stated)
> 100 µM

CCC1(CN(C)C)CC/C(=C\c2ccc3c(c2)OCO3)C1=O (configuration not stated) , same question.
> 100 µM

Follow-up item: O=[N+]([O-])c1ccc(Cl)c(C2SCc3nc4ccccc4n32)c1 (configuration not stated)
89.9 µM

Please do the same for Fc1ccc(C(OCCN2CCC3CCC(C2)N3Cc2cc3ccccc3[nH]2)c2ccc(F)cc2)cc1 (configuration not stated) as well.
3.97 µM

====

Provide the reported TGI of each item.
# Test system: NCI-H23 lung
# protocolText: NCI tumour cell line growth inhibition, 48 h

What value of TGI has been reported for the following compound? C#Cc1ccc(NC(=O)c2ccc(/C=C/C(=O)c3nccn3C)cc2)cc1
1.06 µM

Same read-out for COc1ccc(C)cc1NC(=S)N/N=C/c1ccc(SC)cc1 ?
> 100 µM

And C[C@@H]1CC[C@@]2(OC1)O[C@H]1C[C@H]3[C@@H]4CC=C5C[C@@H](O[C@@H]6O[C@H](CO)[C@@H](O[C@@H]7O[C@@H](CO)[C@H](O)[C@H]7O)[C@H](O)[C@H]6O[C@@H]6O[C@@H](C)[C@H](O)[C@@H](O)[C@H]6O)CC[C@]5(C)[C@H]4CC[C@]3(C)[C@H]1[C@@H]2C ?
2.97 µM

Next record, please: Cc1cn(C2CC(N=[N+]=[N-])C(CO[Si](C)(C)C(C)(C)C)O2)c(=O)[nH]c1=O (centres undefined)
40.2 µM

Same again, this time with Oc1ccc2ccccc2c1N=Nc1ccccc1
> 100 µM

Another compound to look at: COc1ccc(NC(=O)C(=O)C2NC(=S)NC2=O)c(OC)c1 (centres undefined)
> 100 µM

And for CCOC(=O)C12CC1(C(=O)OCC)C1CCC2C1 (centres undefined) ?
> 100 µM

Now this one: COc1ccc2c3c(c(OCCCN(C)C)nc2c1)-c1ccc(Cl)cc1C3=O
25.3 µM

Try this compound too: COc1ccc(-c2ccc(-c3ccc(C(=N)N)cn3)s2)cc1Cl
3.72 µM

Now the same for C[C@@H]1OC(=O)C[C@H]2CC(=O)N(CCc3cn(S(=O)(=O)C(F)(F)F)c4ccccc34)C[C@@H]21
> 100 µM

Follow-up item: O=[N+]([O-])c1ccccc1C1N2CCCCC2[C@@H]2c3[nH]c4ccccc4c3CCN12 (some centres undefined)
27.5 µM

Proceed to CCOC(=O)CCC(NC(=O)OCc1ccccc1)C(=O)NC(CCC(=O)OCC)C(=O)NC(CCC(=O)OCC)C(=O)NC(CCC(=O)OCC)C(=O)NC(CCC(=O)OCC)C(=O)OCC (centres undefined)
> 100 µM

Same read-out for COc1ccc(C(O)c2cc3c(N)c(C(=O)Nc4cccc(Br)c4)sc3nc2C)cc1 (centres undefined) ?
> 60.4 µM

Repeat for the following compound: O/N=C\c1cc(O)c(O)c(/C=N/O)c1
> 100 µM

Try this compound too: O=C(NC(Nc1ccc(F)c(Cl)c1)(C(F)(F)F)C(F)(F)F)C(C(F)(F)F)C(F)(F)F
67.1 µM

Thanks! And CCC1(CN(C)C)CC/C(=C\c2ccc3c(c2)OCO3)C1=O (centres undefined) ?
> 100 µM

O=C1c2ccccc2C(=O)N1c1ccc(OCCN2CCCCC2)cc1 , same question.
> 100 µM

Subsequent entry: Cc1cccc2c1C(=O)C(C1OC(=O)c3ccccc31)C2 (centres undefined)
> 100 µM

// query: CCC(=O)NCCc1c[nH]c2ccc(OC)cc12
> 100 µM
